- Tested on: Rabbit Psoas myofibrils (skeletal myosin ATPase)
- method: Myofibril ATPase assay, rabbit psoas (skeletal) myofibrils
- Assay type: biochemical
- measurement_setup: rabbit psoas myofibrils; Y75 value
Label scheme, based on Skeletal EC25: label 0 = under 2 µM, label 1 = from 2 µM up to 20 µM, label 2 = 20 µM and over

>>> print(df.to_string())
                                    compound  class_name
 0  Cc1c([C@H](C)C(=O)N[C@@H](C)c2ccc(F)cc2F)c(=O)[nH]c2ccc(C(F)(F)F)nc12 (single isomer, unassigned)     label 1
 1  Cc1c(CC(=O)N[C@H](C)c2ccc(C#N)cc2F)c(=O)[nH]c2cnnc(C#N)c12     label 1
 2  Cc1c(CC(=O)N[C@@H](C)c2ccc(F)cc2F)c(=O)[nH]c2ccc(O)nc12     label 1
 3  Cc1nccc2[nH]c(=O)c(C3(C(=O)N[C@@H](C)c4ccc(C#N)cc4F)CC3)c(C)c12 (single isomer, unassigned)     label 0
 4  Cc1c(CC(=O)N[C@H](c2ccc(F)cc2F)C(C)(C)O)c(=O)[nH]c2ccnc(C#N)c12 (single isomer, unassigned)     label 2
 5  Cc1c(CC(=O)N[C@@H](C)c2ccc(F)cc2F)c(=O)[nH]c2ccnc(OCC(C)(C)F)c12     label 0
 6  Cc1c(CC(=O)N[C@@H](C)c2ccc(F)cc2F)c(=O)[nH]c2cnnc(O)c12     label 2
 7  Cc1c(CC(=O)N[C@H](C)c2ccc(S(C)(=O)=O)cc2F)c(=O)[nH]c2ccnc(C#N)c12 (single isomer, unassigned)     label 2
 8  COc1nccc2[nH]c(=O)c(CC(=O)N[C@@H](C)c3ccc(F)cc3F)cc12     label 0
 9  Cc1nccc2[nH]c(=O)c(CC(=O)N[C@@H](C)c3ccc(O)cc3)c(C)c12 (single isomer, unassigned)     label 2
10  CCOc1nccc2[nH]c(=O)c(CC(=O)N[C@@H](C)c3ccc(F)cc3F)c(C)c12     label 0
11  Cc1c(CC(=O)N[C@@H](C)c2ccc(S(C)(=O)=O)cc2F)c(=O)[nH]c2ccnc(C#N)c12 (single isomer, unassigned)     label 2
12  Cc1nccc2[nH]c(=O)c([C@@H](C)C(=O)N[C@@H](C)c3ccc(F)cc3F)c(C(F)(F)F)c12 (single isomer, unassigned)     label 0
